System: tRNA 2'-phosphotransferase TPT1 [Candida albicans SC5314]
PROTOCOL_DESCRIPTION: tRNA 2'-phosphotransferase enzyme inhibition – biochemical, fluorescence polarization, triplicate, confirmation (AID 2149)
CONDITION_CONTEXT: recombinant caTPT1, fluorescence polarization, RNase T1 coupled; at 5 µM
Among all 2,400 compounds or so, about 1,800 (75%) were called active.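 The calls were made as follows: active = inhibition above the primary screen limit, the mean inhibition of all tested compounds plus 3 SD (cut at about 25% in these data); inactive = the rest.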 The set was probably picked from earlier hits. The list is a sample of the results.
Thanks in advance; please answer with one of these: 1 (yes) (active), 0 (no) (inactive)

Request: Test call for this compound, please: Nc1c(C(=O)c2cccs2)sc2nsc(SCCN3CCCCC3)c12
Result: 1 (yes)

Request: I would be grateful if you could indicate the recorded call for Cc1ccc(Nc2ccccc2N)cc1 .
Result: 1 (yes)

Request: State the result this test recorded for O=S(=O)(O)Oc1c[nH]c2ccccc12 .
Result: 1 (yes)

Request: Name the outcome recorded for O=C(C[n+]1cc(Br)cc2ccccc21)c1ccc(F)cc1 in the assay.
Result: 1 (yes)

Request: Given COc1cc(/C=C2/C(=O)NN(c3cccc(Cl)c3)C2=O)cc(Br)c1O , state the outcome it received in this test.
Result: 1 (yes)

Request: Which outcome was entered for the compound COc1cc(/C=C2/SC(=S)N(Cc3ccccc3)C2=O)cc(OC)c1O in this test?
Result: 1 (yes)

Request: How was NC(=O)c1c(Nc2nc3c(F)cccc3s2)sc2c1CCCC2 classified in this test?
Result: 1 (yes)

Request: Outcome logged for Cc1ccc(C)c2[nH]c(=O)c(CCNC(=O)CC(C)C)cc12 in this assay:
Result: 0 (no)

Request: Given CC(C)c1ccc(Nc2nnc(SCC(=O)c3nnc(-c4ccccc4)o3)s2)cc1 , state the outcome it received in this test.
Result: 0 (no)

Request: Call for entry Cc1ccc(CSCC2Nc3ccc(C(=O)N4CCN(c5ccc(F)cc5)CC4)cc3NC2=O)cc1 (stereo unspecified) :
Result: 0 (no)

Request: Query: recorded result category for CCOC(=O)/C(C#N)=C/c1ccc(N2CCN(Cc3ccccc3)CC2)cc1 in this test
Result: 1 (yes)

----------
Tested on: tRNA 2'-phosphotransferase TPT1 [Candida albicans SC5314]
PROTOCOL_DESCRIPTION: tRNA 2'-phosphotransferase enzyme inhibition – biochemical, fluorescence polarization, triplicate, confirmation (AID 2149)
CONDITION_CONTEXT: recombinant caTPT1, fluorescence polarization, RNase T1 coupled; at 5 µM; hits give high values
In all, about 2,400 compounds went through this assay and about 1,800 (75%) were called active. So high a share suggests a set chosen from earlier hits. Only a sample is shown.
PROPERTY_NAME: inhibition

Request: Which inhibition value is on record for Cc1cccn2c(=O)c(/C=C3\SC(=S)N(CC(C)C)C3=O)c(NCCCOC(C)C)nc12 ?
Result: 119% (active)

Request: So what does the record say about inhibition for Oc1ccc(/C=N/Nc2nc(-c3ccccc3F)nc3ccccc23)c(O)c1 ?
Result: 29.1% (active)

Request: Name the reported inhibition value associated with the molecule Cc1sc2nc(COC(=O)C(NC(=O)c3ccc(Cl)cc3Cl)C(C)C)[nH]c(=O)c2c1C (stereo not given)
Result: 55.1% (active)

Request: Any idea what its inhibition is? The molecule is N#CC1=C(N)Oc2c(sc3ccccc23)C1c1ccco1 (stereo not given)
Result: 78.6% (active)

Request: # input molecule: Cc1nc2ccccc2nc(=O)c1NNc1ccc([N+](=O)[O-])cc1 ; wanted: its inhibition
Result: 35.8% (active)
